# Target system: pm3, modified CCR8 related peptide (human, sulfated tyrosine at Y17)
# Sequence (peptide, as listed by the source): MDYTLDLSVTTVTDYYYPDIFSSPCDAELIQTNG
# Protocol summary: ELISA on coated CCR8 peptide (500 ng/mL), OD [cont.]

{"columns": ["Binder", "binding result"],
 "data": [
  ["anti-CCR8 mAb 2-3 (antibody, V domains shown) VH: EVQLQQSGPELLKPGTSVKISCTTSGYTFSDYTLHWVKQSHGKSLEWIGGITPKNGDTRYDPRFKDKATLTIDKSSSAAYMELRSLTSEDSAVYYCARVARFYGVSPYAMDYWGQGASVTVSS VL: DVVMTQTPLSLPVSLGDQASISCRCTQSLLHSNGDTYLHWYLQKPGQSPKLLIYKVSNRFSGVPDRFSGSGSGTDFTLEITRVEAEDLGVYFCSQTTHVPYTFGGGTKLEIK", "binds"],
  ["anti-CCR8 mAb 2-10 (antibody, V domains shown) VH: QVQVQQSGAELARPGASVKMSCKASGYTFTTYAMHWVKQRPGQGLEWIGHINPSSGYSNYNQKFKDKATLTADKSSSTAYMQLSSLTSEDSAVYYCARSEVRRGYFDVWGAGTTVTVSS VL: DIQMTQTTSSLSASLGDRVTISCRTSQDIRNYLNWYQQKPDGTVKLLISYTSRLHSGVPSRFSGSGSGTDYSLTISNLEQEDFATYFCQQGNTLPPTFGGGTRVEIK", "binds"],
  ["anti-CCR8 mAb 2-1 (antibody, V domains shown) VH: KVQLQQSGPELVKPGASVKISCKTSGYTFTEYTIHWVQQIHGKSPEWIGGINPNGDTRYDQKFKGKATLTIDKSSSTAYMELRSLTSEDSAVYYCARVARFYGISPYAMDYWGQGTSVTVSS VL: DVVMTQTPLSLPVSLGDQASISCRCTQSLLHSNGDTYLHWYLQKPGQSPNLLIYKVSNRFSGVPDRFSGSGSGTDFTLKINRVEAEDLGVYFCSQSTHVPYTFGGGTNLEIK", "binds"]
]}
